B1: tRNA (parent)
chain: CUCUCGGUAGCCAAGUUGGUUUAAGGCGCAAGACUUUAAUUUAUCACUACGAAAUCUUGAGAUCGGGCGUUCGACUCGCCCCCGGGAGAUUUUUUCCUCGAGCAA

Variants of: B1
Test: nonsense suppression (GFP-seq) (ratio to wild type); higher = more function; SUP4oc tRNA, yeast GFP reporter sort-seq
Variants at the floor of the assay were thinned out.
Assign nonsense suppression to each entry below.
One number for each entry.

Before answering, review these 5 worked examples.
# mutation.key, nonsense suppression
data = [
    ("U16A", 1),
    ("U20A C75G G85U", 0.154),
    ("A54U G61A", 0.611),
    ("A30U C79U", 0.144),
    ("G61A C72A", 0.0325),
]

Please look at the items below and tell me nonsense suppression for each one, in order.
1. U17A A24U
2. U21G G73U
3. G65A C75A
4. C12U C79U
5. U4C A13C
6. C3U A9G

a:
[0.2, 0.026, 0.109, 0.205, 1.05, 0.195]

Please look at the items below and tell me nonsense suppression for each one, in order.
1. U4C C68U U76C
2. G61A G65A
3. U8A A30U
4. A13C G25A
5. A60G C82A

a:
[1.13, 0.127, 0.0393, 0.0288, 0.0331]

Noted for C3U G86A : its nonsense suppression reads 1.07
